test: Autosampler stability at 4 °C of extracted antibiotic-spiked plasma/CAMHB samples; conditions: plasma extracted samples, 15 h autosampler 4 °C; HQC (nominal as E15)
Mean accuracy (%), Table S9 values by entry
Dear colleague, please return just the value in %, with no unit written.

| test smiles | result unit | Mean accuracy (%), Table S9 |
| --- | --- | --- |
| CN(C)c1cc(NC(=O)CNC(C)(C)C)c(O)c2c1C[C@H]1C[C@H]3[C@H](N(C)C)C(O)=C(C(N)=O)C(=O)[C@@]3(O)C(O)=C1C2=O | % | 111.0 |
| CC(C)(O/N=C(\C(=O)N[C@@H]1C(=O)N2C(C(=O)[O-])=C(C[n+]3ccccc3)CS[C@H]12)c1csc(N)n1)C(=O)O | % | 113.1 |

Data request, read-out Mean accuracy (%), Table S9, for C[C@H]1[C@H](NC(=O)/C(=N\OC(C)(C)C(=O)O)c2csc(N)n2)C(=O)N1S(=O)(=O)O 107.9
